Assay: in vitro
Details: human, hela cells, % viability
Reported viability at 28.5 h, 10 µM values are given for each entry in this list.
Kindly answer with a numeric value in %, unit omitted.

See these solved cases before continuing.
>  <compound>
O=C(NCC1Cc2ccccc2O1)c1ccc(Br)cc1Cl (stereo not drawn)

>  <viability at 28.5 h, 10 µM [%]>
86.9

$$$$
>  <compound>
COc1cc(C(=O)N2CCC3(CCN(C(=O)Cc4c[nH]c5ccccc45)C3)C2)cc(OC)c1OC (stereo not drawn)

>  <viability at 28.5 h, 10 µM [%]>
86.7

$$$$
>  <compound>
CC(=O)OC1CCn2c1nc1ccccc12 (stereo not drawn)

>  <viability at 28.5 h, 10 µM [%]>
92.6

$$$$
>  <compound>
NS(=O)(=O)c1cccc2c1CC1(CC2)OCCO1

>  <viability at 28.5 h, 10 µM [%]>
84.6

$$$$
>  <compound>
COc1ccc([C@@]23CC[C@@H](NC(=O)N(C)c4ccc(Cl)cc4)C[C@@H]2N(C)CC3)cc1OC [CBK045682T]

>  <viability at 28.5 h, 10 µM [%]>
90.8

$$$$

Asked: Name the recorded viability at 28.5 h, 10 µM of the item `CCOC(=O)N1CCN(Cc2nc3c(c(=O)n(C)c(=O)n3C)n2Cc2ccccc2C)CC1` in your answer.
Given back: 91.8

Asked: Name the recorded viability at 28.5 h, 10 µM of the item `O=C(Nc1ccc(OC(F)(F)F)cc1)Nc1cc(-c2cccs2)n[nH]1` in your answer.
Given back: 82.5

====

Experiment: in vitro
Conditions: human, hela cells, % viability
endpoint: viability at 28.5 h, 10 µM (%)
Kindly answer with a numeric value in %, unit omitted.

See these solved cases before continuing.
>  <compound>
CCN(CC)C(=O)C1CN2CCc3cc(OC)c(OC)cc3C2CC1OC(C)=O (stereo not drawn)

>  <measure-unit>
%

>  <viability at 28.5 h, 10 µM>
110

$$$$
>  <compound>
O=C(COc1ccccc1)N1CCN(Cc2ccccn2)CC1 [CBK073265G]

>  <measure-unit>
%

>  <viability at 28.5 h, 10 µM>
86.1

$$$$
>  <compound>
CS(=O)(=O)c1ccc(-c2cccc(COC3CCN(C(=O)Cc4cccc5ccccc45)CC3)c2)cc1

>  <measure-unit>
%

>  <viability at 28.5 h, 10 µM>
90.6

$$$$
>  <compound>
COc1ccc(NS(=O)(=O)c2cc(C(=O)O)c(Cl)cc2Cl)cc1

>  <measure-unit>
%

>  <viability at 28.5 h, 10 µM>
89.7

$$$$
>  <compound>
COCCN(Cc1cnn(C)c1)C(=O)c1cc(=O)c2cccc(F)c2[nH]1

>  <measure-unit>
%

>  <viability at 28.5 h, 10 µM>
83.8

$$$$
>  <compound>
CC(=O)N1CCN(c2nc3ccccc3s2)CC1

>  <measure-unit>
%

>  <viability at 28.5 h, 10 µM>
95

$$$$
>  <compound>
O=C(c1ccc2ccccc2n1)N1CCC(F)CC1

>  <measure-unit>
%

>  <viability at 28.5 h, 10 µM>
102

$$$$
>  <compound>
COC(=O)c1cc(-c2cccnc2)[nH]n1

>  <measure-unit>
%

>  <viability at 28.5 h, 10 µM>
104

$$$$

Asked: Name the recorded viability at 28.5 h, 10 µM of the item Cc1ccc(OCCCSc2nnc(N)[nH]2)cc1 [CBK269215A] in your answer.
Given back: 89.1

Asked: Name the recorded viability at 28.5 h, 10 µM of the item CCOC(=O)N1CCN(CCCCc2ccc(F)cc2)CC1 [CBK025002C] in your answer.
Given back: 105

Asked: Name the recorded viability at 28.5 h, 10 µM of the item `COc1ccc(N(CC(=O)N2CCN(Cc3ccc4c(c3)OCO4)CC2)S(C)(=O)=O)cc1Cl` in your answer.
Given back: 84.3

Asked: Name the recorded viability at 28.5 h, 10 µM of the item `CCOC(=O)Cn1nc(CC)c(Cc2c(Cl)cccc2Cl)c1C` in your answer.
Given back: 122

Asked: Name the recorded viability at 28.5 h, 10 µM of the item O=C(Nc1ccc(-c2ccccc2)cc1)c1cccc(S(=O)(=O)NCC2CCCO2)c1 (stereo not drawn) in your answer.
Given back: 95.7

Asked: Name the recorded viability at 28.5 h, 10 µM of the item `COc1ccc(C)cc1N(C(=O)c1ccccn1)c1nc2ccccc2s1` in your answer.
Given back: 97.7

====

Reported viability at 28.5 h, 10 µM values are given for each entry in this list.
Assay: in vitro
Settings: human, hela cells, % viability
Reply with the number and its unit after it.

See these solved cases before continuing.
>  <compound>
COCc1cccc(-c2nccnc2Oc2cccc(OC)c2)c1

>  <viability at 28.5 h, 10 µM>
90.6%

$$$$
>  <compound>
CCCCCOc1ccc(Nc2ccc(-c3cccc(Cl)c3Cl)cn2)cc1

>  <viability at 28.5 h, 10 µM>
111%

$$$$
>  <compound>
Cc1nc(C)c(CCC(=O)Nc2cccc(F)c2)c(=O)[nH]1

>  <viability at 28.5 h, 10 µM>
90.3%

$$$$
>  <compound>
COc1cc(C(N)C(=O)O)ccc1OCc1ccccc1 (centres unmarked)

>  <viability at 28.5 h, 10 µM>
82.6%

$$$$

Now take the following compound into account.
Asked: Name the recorded viability at 28.5 h, 10 µM of the item `CN(C)c1ccc(-c2cncc(NCc3ccc4c(c3)OCO4)n2)cc1` in your answer.
Given back: 108%

====

Assay: in vitro
Conditions: human, hela cells, % viability
endpoint: viability at 28.5 h, 10 µM (%)
Kindly answer with a numeric value in %, unit omitted.

See these solved cases before continuing.
>  <compound>
O=C1/C(=C/c2ccc(OCc3ccccc3Cl)c(Cl)c2)SC(=S)N1Cc1cccnc1

>  <measure-unit>
%

>  <viability at 28.5 h, 10 µM>
92.4

$$$$
>  <compound>
CS(=O)(=O)c1ccc2nc(NC(=O)c3ccco3)sc2c1

>  <measure-unit>
%

>  <viability at 28.5 h, 10 µM>
95.4

$$$$
>  <compound>
Clc1ccc(CN2CCC(Oc3nccnc3OCCN3CCOCC3)CC2)cc1 [CBK082918T]

>  <measure-unit>
%

>  <viability at 28.5 h, 10 µM>
92.5

$$$$
>  <compound>
Cc1ccc(N2C(=O)N[C@@H]3CCN(C(=O)c4ccc(C(C)(C)C)cc4)[C@@H]3C2=O)cc1

>  <measure-unit>
%

>  <viability at 28.5 h, 10 µM>
98.8

$$$$

Asked: Name the recorded viability at 28.5 h, 10 µM of the item `COc1ccccc1N1CCN(CCc2nnc(S)n2-c2ccccc2)CC1` in your answer.
Given back: 102

====

Experiment: in vitro
Details: human, hela cells, % viability
endpoint: viability at 28.5 h, 10 µM

See these solved cases before continuing.
>  <compound>
CCOC(=O)C1CCCN(C(=O)Cn2ncc(Cl)c(Cl)c2=O)C1 (stereo not drawn) [CBK305573]

>  <viability at 28.5 h, 10 µM>
47.7%

$$$$
>  <compound>
O=[N+]([O-])c1ccc2nc(Sc3nc4ccccc4[nH]3)sc2c1 [CBK263356]

>  <viability at 28.5 h, 10 µM>
89.8%

$$$$
>  <compound>
Cc1noc(C)c1CC(=O)N(C)CCN1CCCCC1 [CBK281855]

>  <viability at 28.5 h, 10 µM>
88.8%

$$$$

Now take the following compound into account.
Asked: Name the recorded viability at 28.5 h, 10 µM of the item CN1CCN(C(=O)CC[C@@H]2CNC(=O)[C@@H]3C[C@H](NC(=O)c4ccccc4)CN23)CC1 [CBK289014] in your answer.
Given back: 86.7%

====

Test: in vitro
Conditions: human, hela cells, % viability
Response field label: string, one of True (viability at 28.5 h, 10 µM strictly below 90%) or False.

>  <compound>
Cc1c(NC(=O)CSc2ccc(Cl)cc2)cccc1-c1nc2ncccc2o1

>  <label-value>
False

$$$$

Asked: Confirm or reject: viability at 28.5 h, 10 µM of O=C(O)c1ccccc1C1Nc2ccccc2S(=O)(=O)N1Cc1ccccc1 (centres unmarked) lies strictly below 90%
Given back: False

====

Reported viability at 28.5 h, 10 µM values are given for each entry in this list.
Test: in vitro
Settings: human, hela cells, % viability
Kindly answer with a numeric value in %, unit omitted.

See these solved cases before continuing.
>  <compound>
Fc1ccccc1Nc1nc(-c2ccncc2)cs1

>  <viability at 28.5 h, 10 µM / %>
103

$$$$
>  <compound>
CC1CN(C)C(C)CC1OC(=O)C(c1ccccc1)c1ccccc1 (stereo not shown)

>  <viability at 28.5 h, 10 µM / %>
105

$$$$
>  <compound>
Cc1noc(C)c1NC(=O)c1cnccn1

>  <viability at 28.5 h, 10 µM / %>
89.9

$$$$

Now take the following compound into account.
Asked: Name the recorded viability at 28.5 h, 10 µM of the item CC(NCC(O)COCc1ccc(Cl)cc1)c1ccccc1 (stereo not shown) [CBK027972C] in your answer.
Given back: 87.5
